measured.on: mu opiate receptor (MOR) (Rattus norvegicus, UniProt P33535)
Construct: from tissue; host or cells: striatum (membrane preparation)
Sequence (P33535 whole entry): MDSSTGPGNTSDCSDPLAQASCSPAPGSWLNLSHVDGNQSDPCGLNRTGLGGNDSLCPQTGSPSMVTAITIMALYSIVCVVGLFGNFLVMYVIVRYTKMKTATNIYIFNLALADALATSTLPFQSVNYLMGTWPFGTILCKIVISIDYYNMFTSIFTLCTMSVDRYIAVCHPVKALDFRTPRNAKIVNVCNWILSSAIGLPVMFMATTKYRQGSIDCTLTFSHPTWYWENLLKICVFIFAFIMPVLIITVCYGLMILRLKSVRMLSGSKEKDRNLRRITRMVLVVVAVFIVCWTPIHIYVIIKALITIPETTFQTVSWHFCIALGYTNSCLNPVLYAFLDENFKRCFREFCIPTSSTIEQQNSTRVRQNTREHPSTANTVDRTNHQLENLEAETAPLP
Type: biochemical
condition.parameters: 1 μM compound + 1 μM β-FNA (selective MOR antagonist); Series C-2
Documented [35S]GTPγS binding, FLNA-Binding Compound as Agonist at 1 μM + BFNA across a set of compounds
A complete answer gives the number followed by the unit.

Briefly, [35S]GTPγS binding, FLNA-Binding Compound as Agonist at 1 μM + BFNA measured for "COc1ccc(S(=O)(=O)N2CCC3(CC2)NCCO3)cc1" : 21.2%

Note to self: [35S]GTPγS binding, FLNA-Binding Compound as Agonist at 1 μM + BFNA recorded for CCN1CCC2(CC1)OCCN2S(=O)(=O)c1ccc(C(C)=O)cc1 [Compound C0094M] was 115.3%

The reported value for O=C1CN(C2CCc3ccccc3C2)C2(CCN(S(=O)(=O)c3ccccc3)CC2)N1 (centres unmarked) [C0136M(P5)] in terms of [35S]GTPγS binding, FLNA-Binding Compound as Agonist at 1 μM + BFNA is 74.5%

Input COc1ccc(S(=O)(=O)N2CCOC23CCN(C)CC3)cc1 [Compound C0088M] . Output [35S]GTPγS binding, FLNA-Binding Compound as Agonist at 1 μM + BFNA: 177.1%

Summary for this compound, C=CCN1CCC2(CC1)OCCN2S(=O)(=O)c1ccc(OC)cc1 [Compound C0091M] : [35S]GTPγS binding, FLNA-Binding Compound as Agonist at 1 μM + BFNA is 80.8%

====

measured.on: mu opiate receptor (MOR) (Rattus norvegicus, UniProt P33535)
Construct: from tissue; host or cells: striatum (membrane preparation)
Type: biochemical
condition.parameters: [35S]GTPγS binding to Gαo in striatal membranes; compound 1 μM
Concentration of FLNA-Binding Compound as Agonist 1 μM for assorted molecules
Kindly answer with a numeric value in %, unit omitted.

Take a look at these entries with their results.
molecule	reported.value
COc1c2c(cc3c1C(CC(=O)CCc1ccc(O)cc1)[N+](C)(C)CC3)OCO2 (stereo not shown) [Compound B0028]	357.7
Cc1ccc(S(=O)(=O)N2CCC3(CC2)OCCN3S(=O)(=O)c2ccc(C)cc2)cc1 [Compound C0001]	184.3
CC1CCC(C(C)C)C(OCC(O)CN2CCCCC2)C1 (stereo not shown) [Compound A0005]	239.2

Lab entry: mu opiate receptor (MOR) (Rattus norvegicus, UniProt P33535) assay, molecule COc1cccc(OC)c1CC(=O)CC1c2c(cc3c(c2OC)OCO3)CC[N+]1(C)C (stereo not shown) [Compound B0036] , Concentration of FLNA-Binding Compound as Agonist 1 μM = 120.6

====

measured.on: mu opiate receptor (MOR) (Rattus norvegicus, UniProt P33535)
Construct: from tissue; host or cells: striatum (membrane preparation)
Format: biochemical
Description: To assess the mu opiate receptor (MOR) agonist activity of positive compounds from the FLNA screening, compounds were tested in a [^35S]GTPγS binding assay using striatal membranes. […] The immunocomplexes so formed were collected by incubation at 25° C. for 30 minutes with 40 μl of agarose-conjugated protein A/G beads and centrifugation at 5,000×g at 4° C. for 5 minutes. […] The radioactivity in the suspension was determined by liquid scintillation spectrometry.
quantity: % DAMGO + BFNA (%)
The figure you give is taken to be in %; do not add the unit.

// solved cases for % DAMGO + BFNA follow
molecule	measured.on	quantity	reported.value
COc1ccc(CCCCC2c3c(cc4c(c3OC)OCO4)CC[N+]2(C)C)cc1 (stereo not drawn)	mu opiate receptor (MOR) (Rattus norvegicus, UniProt P33535)	% DAMGO + BFNA	158.9
CC(=O)c1ccc(OCC(O)CN2CC(C)OC(C)C2)cc1 (stereo not drawn)	mu opiate receptor (MOR) (Rattus norvegicus, UniProt P33535)	% DAMGO + BFNA	182.3
CC1CCC(C(C)C)C(OCC(O)CN2CCN(CCN3CCCCC3)CC2)C1 (stereo not drawn)	mu opiate receptor (MOR) (Rattus norvegicus, UniProt P33535)	% DAMGO + BFNA	573.8

For this molecule ( COc1ccccc1CC(O)CC1c2c(cc3c(c2OC)OCO3)CCN1C (stereo not drawn) ), measured % DAMGO + BFNA is 172.9

// field: % DAMGO + BFNA; key: OC(COc1cccc(F)c1)CN1CCc2ccccc2C1 (stereo not drawn) ; value = 102.4

Just so you know, measured % DAMGO + BFNA for COc1ccc(OCC(O)Cn2ccc3ccccc32)cc1 (stereo not drawn) came out at 470.5

What the record says about Cc1ccc(C(C)C)c(OCC(O)CN2CC(C)OC(C)C2)c1 (stereo not drawn) : % DAMGO + BFNA is 443.7

Summary for this molecule, COc1c2c(cc3c1C(CC(=O)Cc1ccccc1C)N(C)CC3)OCO2 (stereo not drawn) : % DAMGO + BFNA is 809.0

% DAMGO + BFNA measured on CCN1CCC2(CC1)OCCN2S(=O)(=O)c1ccc(OC)cc1 [Compound C0089M] = 237.4
